Hey, just so you know, these numbers are from patent US20070148283A1.

# Assay notes: Amount in a composition achieving the characteristic nasal action of menthol
# Type: in vivo
# Measurement context: amount present in a composition; equivalent amounts relative to menthol
# Text: For purposes of achieving the characteristic “nasal action” of menthol, an equivalent amount of another compound sufficient to impart the characteristic “nasal action” of menthol is about 0.5 ppm, preferably about 1 ppm or even 2 or 3 ppm of methone, about 0.5 ppm, preferably about 1 ppm or even 2 or 3 ppm of isomethone, about 0.1 ppm, preferably about 0.2 ppm or even 0.3 or 0.5 ppm of eucalyptol, and about 10 ppm, preferably about 20 ppm or even 30 or 50 ppm of camphor. […]
Result type: amount sufficient to impart the characteristic nasal action of menthol

Molecule	Measured result
CC(C)[C@@H]1CC[C@H](C)CC1=O [isomethone, isomenthone]	about 0.5 ppm
CC(C)[C@@H]1CC[C@@H](C)CC1=O [methone, menthone]	about 0.5 ppm
CC1CCC(C(C)C)C(O)C1 (centres unmarked) [menthol]	≥ 3 ppm

----------
# Assay notes: Amount in a composition achieving the characteristic cooling effect of menthol
# Assay type: in vivo
# Measurement context: amount present in a composition; equivalent amounts relative to menthol
Result type: amount sufficient to impart the characteristic cooling effect of menthol

**Q:** GET /values?readout=amount sufficient to impart the characteristic cooling effect of menthol&item= CC1CCC(C(C)C)C(O)C1 (stereo not shown)
**A:** ≥ 25 ppm
